Biological target: T1, FcRn-p3 fusion protein (human, UniProt P55899 24-297; P61769 21-119)
T1 construct: baculovirus expressed; coated on ELISA wells; not shown: amino terminal part of bacteriophage p3 protein and CVDE protein
T1 sequence (P55899 24-297, chain 1 of 2): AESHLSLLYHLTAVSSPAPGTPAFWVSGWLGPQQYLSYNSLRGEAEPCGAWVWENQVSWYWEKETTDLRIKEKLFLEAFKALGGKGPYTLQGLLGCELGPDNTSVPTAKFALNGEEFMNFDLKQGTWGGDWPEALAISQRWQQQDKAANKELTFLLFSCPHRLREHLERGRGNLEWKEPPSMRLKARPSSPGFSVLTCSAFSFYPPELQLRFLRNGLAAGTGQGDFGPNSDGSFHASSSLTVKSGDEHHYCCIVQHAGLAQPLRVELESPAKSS
T1 sequence (P61769 21-119, chain 2 of 2): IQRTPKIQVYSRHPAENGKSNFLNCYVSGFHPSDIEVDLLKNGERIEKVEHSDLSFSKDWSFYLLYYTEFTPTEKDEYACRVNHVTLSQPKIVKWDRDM
Experiment: phage ELISA pH6
Each entry below carries its recorded Ratio/Fc-H.

- Binder: "C6A_78F (other, EU numbering) CPRCSAPELLGGPSVFLFPPKPKDTLMISRNPEVTCVVVDVSHEDPEVKFNWYVDGVEVHNAKTKPREEQYNSTYRVVSVLTVLHQDWLNGKEYKCKVSNKALPAPIEKTISKAKGQPREPQVYTLPPSRDELTKNQVSLTCLVKGFYPSDIVVEWESNGQPENNYKTTPPVLDSDGSFFLYSKLTVDKSRWQQGNVFSCSVMHEALHYHYTQKSLSLSPGK"
  Ratio/Fc-H (fold): 9.4
- Binder: "T7A_92 (other, EU numbering) CPPCPAPELLGGPSVFLFPPKPKDTLMISRTPEVTCVVEDVSHEDPEVKFNWYVDGVEVHNAKTKPREEQYNSTYRVVSVLTVLHQDWLNGKEYKCKVSNKALPAPIEKTISKAKGQPREPQVYTLPPSRDELTKNQVSLTCLVKGFYPSDIAVEWESNGQPENNYKTTPLVLDSDGSFFLYSKLTVDKNRWQQGNVFSCSVMHEALHSHYTQKSLSLSPGK"
  Ratio/Fc-H (fold): 6.7
- Binder: "C6A_72 (other, EU numbering) CPPCPAPELLGGPSVFLFPPKPKDALMISRTPEVTCVVVDVSHEDPEVKFNWYVDGVEVHNAKTKPREEQYNSTYRVVSVLTVLHQDWLNGKEYKCKVSNKALPAPIEKTISKAKGQPREPQVYTLPPSRDELTKNQVSLTCLVKGFYPSDIAVEWESNGQPEKNYKTTPPVLDSDGSFFLYSKLTVDKSRWQQGNVFSCSVMHEALHYHYTQKSLSLSPGK"
  Ratio/Fc-H (fold): 8
